assayed system: Platelet-derived growth factor receptor alpha (Homo sapiens, UniProt P16234)
Sequence (P16234 whole entry, the tested form may be a part): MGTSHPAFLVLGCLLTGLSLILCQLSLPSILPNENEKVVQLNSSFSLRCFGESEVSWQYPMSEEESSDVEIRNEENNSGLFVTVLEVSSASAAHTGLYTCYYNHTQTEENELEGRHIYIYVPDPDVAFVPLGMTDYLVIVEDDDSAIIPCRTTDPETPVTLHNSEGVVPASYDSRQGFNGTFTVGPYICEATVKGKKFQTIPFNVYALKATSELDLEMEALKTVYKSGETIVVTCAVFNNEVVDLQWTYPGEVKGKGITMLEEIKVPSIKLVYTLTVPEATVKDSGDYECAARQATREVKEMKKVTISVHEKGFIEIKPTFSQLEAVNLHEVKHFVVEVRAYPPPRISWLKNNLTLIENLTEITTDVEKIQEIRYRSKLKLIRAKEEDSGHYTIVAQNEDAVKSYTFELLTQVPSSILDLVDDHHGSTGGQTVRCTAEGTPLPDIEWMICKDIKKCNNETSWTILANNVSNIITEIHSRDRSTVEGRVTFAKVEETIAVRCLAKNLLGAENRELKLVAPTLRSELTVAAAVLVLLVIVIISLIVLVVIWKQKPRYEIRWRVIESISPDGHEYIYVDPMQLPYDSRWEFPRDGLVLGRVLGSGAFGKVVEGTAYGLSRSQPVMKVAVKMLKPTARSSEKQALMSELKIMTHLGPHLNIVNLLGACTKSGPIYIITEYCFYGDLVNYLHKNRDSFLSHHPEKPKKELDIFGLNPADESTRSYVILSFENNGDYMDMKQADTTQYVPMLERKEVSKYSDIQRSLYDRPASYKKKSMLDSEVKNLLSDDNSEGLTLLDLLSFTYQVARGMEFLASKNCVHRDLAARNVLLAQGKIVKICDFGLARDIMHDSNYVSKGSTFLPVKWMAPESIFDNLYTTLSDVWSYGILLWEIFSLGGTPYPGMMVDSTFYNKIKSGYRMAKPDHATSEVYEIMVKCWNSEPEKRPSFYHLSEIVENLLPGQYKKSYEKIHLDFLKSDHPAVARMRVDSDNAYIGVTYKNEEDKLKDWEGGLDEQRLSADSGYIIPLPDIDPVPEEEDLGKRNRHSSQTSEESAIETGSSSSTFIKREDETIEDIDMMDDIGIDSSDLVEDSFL
protocol summary: Inhibition of recombinant human GST-tagged PDGFRA cytoplasmic domain (550 to 1089 residues) expressed in baculovirus expression system by Z-lyte assay
experimental readout: IC50 (nM)
Lab book: enter the figure in nM, no units written.

query: Reported IC50, molecule `COc1cc2nccc(Oc3ccc(NC(=O)Cc4ccc(Cl)c(C(F)(F)F)c4)cc3)c2cc1OC` : ____
result: 25

====

protocol summary: Cmax in mouse at 10 mg/kg, po by LC-MS/MS analysis
Assay type: ADME, organism-based
Parameters: dose 10 mg/kg, route oral
setup conditions: in vivo
experimental readout: Cmax
// unit must come after the numeric part

query: Reported Cmax, molecule `COc1cc2nccc(Oc3ccc(NC(=O)Cc4ccc(Cl)c(C(F)(F)F)c4)cc3)c2cc1OC` : ____
result: 1390 ng/mL

====

protocol summary: Cmax in Beagle dog at 1 mg/kg, iv by LC-MS/MS analysis
Format: ADME, organism-based, Canis lupus familiaris
Parameters: dose 1 mg/kg, route intravenous
setup conditions: in vivo
experimental readout: Cmax (ng/mL)
Lab book: enter the figure in ng/mL, no units written.

query: Reported Cmax, compound `COc1cc2nccc(Oc3ccc(NC(=O)Cc4ccc(Cl)c(C(F)(F)F)c4)cc3)c2cc1OC` : ____
result: 1110

====

protocol summary: Half life in Sprague-Dawley rat at 1 mg/kg, iv by LC-MS/MS analysis
Type: ADME, organism-based
setup conditions: in vivo
experimental readout: half-life (h)
Lab book: enter the figure in h, no units written.

query: Reported half-life, molecule `COc1cc2nccc(Oc3ccc(NC(=O)Cc4ccc(Cl)c(C(F)(F)F)c4)cc3)c2cc1OC` : ____
result: 15.8

====

assayed system: Mast/stem cell growth factor receptor Kit (Homo sapiens, UniProt P10721, 560-578DEL/T670I)
Sequence (P10721 whole entry, looked up, stated change not applied): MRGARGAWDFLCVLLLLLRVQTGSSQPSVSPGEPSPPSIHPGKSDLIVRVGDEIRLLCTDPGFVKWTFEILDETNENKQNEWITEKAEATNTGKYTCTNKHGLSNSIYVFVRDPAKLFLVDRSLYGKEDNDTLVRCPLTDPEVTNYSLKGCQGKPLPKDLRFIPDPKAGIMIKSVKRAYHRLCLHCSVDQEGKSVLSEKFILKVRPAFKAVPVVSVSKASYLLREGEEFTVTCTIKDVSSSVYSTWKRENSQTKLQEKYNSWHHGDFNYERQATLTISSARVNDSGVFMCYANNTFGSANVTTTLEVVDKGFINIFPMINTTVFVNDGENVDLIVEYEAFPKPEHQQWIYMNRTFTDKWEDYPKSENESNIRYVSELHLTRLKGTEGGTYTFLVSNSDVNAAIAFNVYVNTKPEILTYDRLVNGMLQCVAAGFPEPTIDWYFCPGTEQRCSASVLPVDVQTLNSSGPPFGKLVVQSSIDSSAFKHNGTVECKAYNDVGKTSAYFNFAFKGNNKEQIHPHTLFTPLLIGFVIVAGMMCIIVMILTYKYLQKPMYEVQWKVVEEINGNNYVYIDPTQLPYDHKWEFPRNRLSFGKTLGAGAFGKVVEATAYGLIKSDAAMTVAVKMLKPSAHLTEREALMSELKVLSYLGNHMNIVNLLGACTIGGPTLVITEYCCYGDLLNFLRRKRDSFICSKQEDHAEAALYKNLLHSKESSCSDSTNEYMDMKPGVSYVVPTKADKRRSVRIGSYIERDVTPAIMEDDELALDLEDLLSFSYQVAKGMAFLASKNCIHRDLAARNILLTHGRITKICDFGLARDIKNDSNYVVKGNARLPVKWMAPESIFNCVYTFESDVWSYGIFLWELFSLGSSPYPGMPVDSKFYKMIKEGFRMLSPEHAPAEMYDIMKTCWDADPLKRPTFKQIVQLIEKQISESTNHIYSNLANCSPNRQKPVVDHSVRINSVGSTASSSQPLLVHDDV
experimental readout: EC50

query: Lab request: please report EC50 under test system Mast/stem cell growth factor receptor Kit (Homo sapiens, UniProt P10721, 560-578DEL/T670I) for `COc1cc2nccc(Oc3ccc(NC(=O)Cc4ccc(Cl)c(C(F)(F)F)c4)cc3)c2cc1OC`
result: < 0.1 µM

====

assayed system: Mast/stem cell growth factor receptor Kit (Homo sapiens, UniProt P10721, 560-578DEL/T670I)
pEC50: −log10 of the molar value.
experimental readout: pEC50

query: Lab request: please report pEC50 under test system Mast/stem cell growth factor receptor Kit (Homo sapiens, UniProt P10721, 560-578DEL/T670I) for `COc1cc2nccc(Oc3ccc(NC(=O)Cc4ccc(Cl)c(C(F)(F)F)c4)cc3)c2cc1OC`
result: > 7.00

====

assayed system: Mast/stem cell growth factor receptor Kit (Homo sapiens, UniProt P10721, 560-578DEL)
Type: cell-based, GISTT1
experimental readout: EC50

query: Lab request: please report EC50 under test system Mast/stem cell growth factor receptor Kit (Homo sapiens, UniProt P10721, 560-578DEL) for `COc1cc2nccc(Oc3ccc(NC(=O)Cc4ccc(Cl)c(C(F)(F)F)c4)cc3)c2cc1OC`
result: < 100 nM

====

protocol summary: AUC (0 to t) in Beagle dog at 1 mg/kg, iv by LC-MS/MS analysis
Type: ADME, organism-based, Canis lupus familiaris
setup conditions: in vivo
experimental readout: AUC(0-t)
// unit must come after the numeric part

query: Reported AUC(0-t), compound `COc1cc2nccc(Oc3ccc(NC(=O)Cc4ccc(Cl)c(C(F)(F)F)c4)cc3)c2cc1OC` : ____
result: 5320 ng·h/mL

====

protocol summary: Half life in mouse at 1 mg/kg, iv by LC-MS/MS analysis
Assay type: ADME, organism-based
setup conditions: in vivo
experimental readout: half-life (min)
Lab book: enter the figure in min, no units written.

query: Reported half-life, molecule `COc1cc2nccc(Oc3ccc(NC(=O)Cc4ccc(Cl)c(C(F)(F)F)c4)cc3)c2cc1OC` : ____
result: 324

====

assayed system: Mast/stem cell growth factor receptor Kit (Homo sapiens, UniProt P10721, 560-578DEL)
Format: cell-based, GISTT1
experimental readout: EC50

query: Lab request: please report EC50 under test system Mast/stem cell growth factor receptor Kit (Homo sapiens, UniProt P10721, 560-578DEL) for `COc1cc2nccc(Oc3ccc(NC(=O)Cc4ccc(Cl)c(C(F)(F)F)c4)cc3)c2cc1OC`
result: < 100 nM

====

assayed system: Mast/stem cell growth factor receptor Kit (Homo sapiens, UniProt P10721, 560-578DEL)
Assay type: cell-based, GISTT1
experimental readout: EC50

query: Reported EC50, molecule `COc1cc2nccc(Oc3ccc(NC(=O)Cc4ccc(Cl)c(C(F)(F)F)c4)cc3)c2cc1OC` : ____
result: < 0.1 µM

====

protocol summary: Oral bioavailability in mouse at 10 mg/kg by LC-MS/MS analysis
Format: ADME, organism-based
setup conditions: in vivo
experimental readout: bioavailability (%)
Lab book: enter the figure in %, no units written.

query: Reported bioavailability, molecule `COc1cc2nccc(Oc3ccc(NC(=O)Cc4ccc(Cl)c(C(F)(F)F)c4)cc3)c2cc1OC` : ____
result: 43

====

protocol summary: Protein binding in plasma (unknown origin)
Assay type: ADME, cell-free
setup conditions: read-out: PPB
experimental readout: fraction unbound

query: Reported fraction unbound, molecule `COc1cc2nccc(Oc3ccc(NC(=O)Cc4ccc(Cl)c(C(F)(F)F)c4)cc3)c2cc1OC` : ____
result: < 0.1

====

assayed system: Mast/stem cell growth factor receptor Kit (Homo sapiens, UniProt P10721, 560-578DEL/T670I)
Format: cell-based, GISTT1
pEC50: −log10 of the molar value.
experimental readout: pEC50

query: Reported pEC50, compound `COc1cc2nccc(Oc3ccc(NC(=O)Cc4ccc(Cl)c(C(F)(F)F)c4)cc3)c2cc1OC` : ____
result: > 7.00

====

assayed system: Mast/stem cell growth factor receptor Kit (Homo sapiens, UniProt P10721, 560-578DEL)
Type: cell-based, GISTT1
experimental readout: EC50

query: Reported EC50, compound `COc1cc2nccc(Oc3ccc(NC(=O)Cc4ccc(Cl)c(C(F)(F)F)c4)cc3)c2cc1OC` : ____
result: < 100 nM

====

protocol summary: AUC (0 to t) in Sprague-Dawley rat at 1 mg/kg, iv by LC-MS/MS analysis
Assay type: ADME, organism-based
setup conditions: in vivo
experimental readout: AUC(0-t) (µg·h/mL)
Lab book: enter the figure in µg·h/mL, no units written.

query: Reported AUC(0-t), molecule `COc1cc2nccc(Oc3ccc(NC(=O)Cc4ccc(Cl)c(C(F)(F)F)c4)cc3)c2cc1OC` : ____
result: 2.55

====

assayed system: Mast/stem cell growth factor receptor Kit (Homo sapiens, UniProt P10721, T670I/V559D)
Sequence (P10721 26-976 V559D/T670I limits assumed): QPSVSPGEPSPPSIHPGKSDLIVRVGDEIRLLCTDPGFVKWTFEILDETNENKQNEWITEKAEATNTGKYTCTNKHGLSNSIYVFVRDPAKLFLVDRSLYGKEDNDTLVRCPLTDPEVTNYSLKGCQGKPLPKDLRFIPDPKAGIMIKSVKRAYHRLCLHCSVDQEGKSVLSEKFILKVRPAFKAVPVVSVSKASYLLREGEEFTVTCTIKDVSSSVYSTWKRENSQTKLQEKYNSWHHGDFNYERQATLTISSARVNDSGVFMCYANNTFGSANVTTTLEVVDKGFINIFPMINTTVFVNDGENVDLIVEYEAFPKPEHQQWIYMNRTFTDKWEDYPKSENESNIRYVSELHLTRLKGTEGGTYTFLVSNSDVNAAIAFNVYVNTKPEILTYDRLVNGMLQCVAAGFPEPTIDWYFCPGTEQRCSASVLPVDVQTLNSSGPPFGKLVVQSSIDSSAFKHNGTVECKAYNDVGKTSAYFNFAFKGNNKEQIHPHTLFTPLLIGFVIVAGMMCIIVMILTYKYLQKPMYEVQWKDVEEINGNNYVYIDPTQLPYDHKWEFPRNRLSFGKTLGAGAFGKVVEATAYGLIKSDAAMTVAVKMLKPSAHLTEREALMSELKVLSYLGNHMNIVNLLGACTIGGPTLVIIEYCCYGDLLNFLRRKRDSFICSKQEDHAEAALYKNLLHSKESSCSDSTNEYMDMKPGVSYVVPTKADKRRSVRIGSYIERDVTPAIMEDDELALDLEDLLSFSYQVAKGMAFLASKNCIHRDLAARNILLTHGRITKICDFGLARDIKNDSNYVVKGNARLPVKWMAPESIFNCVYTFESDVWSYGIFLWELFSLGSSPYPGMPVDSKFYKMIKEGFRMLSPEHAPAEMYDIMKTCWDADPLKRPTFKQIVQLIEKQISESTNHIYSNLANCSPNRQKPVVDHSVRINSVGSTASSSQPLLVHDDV
protocol summary: Inhibition of human N-terminal GST-tagged KIT V559D/T670I double mutant (544 to end residues) expressed in baculovirus infected Sf9 insect cells by Lanthascreen Eu-binding method
experimental readout: pIC50
Note on units: pIC50 is unitless, being -log10 of a concentration expressed in mol/L.

query: Reported pIC50, molecule `COc1cc2nccc(Oc3ccc(NC(=O)Cc4ccc(Cl)c(C(F)(F)F)c4)cc3)c2cc1OC` : ____
result: 8.10

====

assayed system: Mast/stem cell growth factor receptor Kit (Homo sapiens, UniProt P10721, 560-578DEL)
Type: cell-based, GISTT1
experimental readout: EC50

query: Lab request: please report EC50 under test system Mast/stem cell growth factor receptor Kit (Homo sapiens, UniProt P10721, 560-578DEL) for `COc1cc2nccc(Oc3ccc(NC(=O)Cc4ccc(Cl)c(C(F)(F)F)c4)cc3)c2cc1OC`
result: < 100 nM

====

assayed system: Platelet-derived growth factor receptor beta (Homo sapiens, UniProt P09619)
Sequence (P09619 whole entry, the tested form may be a part): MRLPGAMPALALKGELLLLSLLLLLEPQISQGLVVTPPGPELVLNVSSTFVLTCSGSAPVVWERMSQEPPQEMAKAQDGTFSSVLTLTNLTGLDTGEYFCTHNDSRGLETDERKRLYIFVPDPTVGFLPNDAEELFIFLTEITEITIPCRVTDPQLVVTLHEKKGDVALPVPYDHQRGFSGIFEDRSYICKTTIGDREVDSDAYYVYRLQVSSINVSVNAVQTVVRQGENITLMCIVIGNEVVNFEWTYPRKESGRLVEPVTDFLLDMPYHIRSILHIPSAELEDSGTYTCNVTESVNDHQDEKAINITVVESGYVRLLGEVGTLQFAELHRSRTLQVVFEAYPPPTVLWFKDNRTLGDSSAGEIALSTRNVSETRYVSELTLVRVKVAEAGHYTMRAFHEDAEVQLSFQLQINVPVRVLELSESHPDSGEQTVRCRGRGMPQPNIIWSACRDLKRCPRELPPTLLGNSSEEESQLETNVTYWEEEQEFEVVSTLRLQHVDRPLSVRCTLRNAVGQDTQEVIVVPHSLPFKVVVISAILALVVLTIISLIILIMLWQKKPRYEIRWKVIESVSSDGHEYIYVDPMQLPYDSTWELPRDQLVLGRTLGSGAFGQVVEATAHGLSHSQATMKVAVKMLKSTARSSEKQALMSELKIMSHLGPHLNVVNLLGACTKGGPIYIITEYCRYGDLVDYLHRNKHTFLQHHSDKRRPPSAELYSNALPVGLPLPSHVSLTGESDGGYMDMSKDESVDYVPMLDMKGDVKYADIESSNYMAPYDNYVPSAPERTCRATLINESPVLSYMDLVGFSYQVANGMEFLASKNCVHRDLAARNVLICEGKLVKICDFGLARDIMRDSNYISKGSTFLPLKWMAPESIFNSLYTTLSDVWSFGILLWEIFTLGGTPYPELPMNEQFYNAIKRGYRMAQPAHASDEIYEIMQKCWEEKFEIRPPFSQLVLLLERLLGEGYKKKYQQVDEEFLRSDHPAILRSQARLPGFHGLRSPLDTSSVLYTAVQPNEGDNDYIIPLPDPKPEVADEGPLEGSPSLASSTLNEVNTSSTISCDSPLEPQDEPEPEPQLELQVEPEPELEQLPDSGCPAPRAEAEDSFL
protocol summary: Inhibition of recombinant human His-tagged PDGFRB cytoplasmic domain (558 to 1106 residues) expressed in baculovirus expression system by Z-lyte assay
experimental readout: IC50

query: Lab request: please report IC50 under test system Platelet-derived growth factor receptor beta (Homo sapiens, UniProt P09619) for `COc1cc2nccc(Oc3ccc(NC(=O)Cc4ccc(Cl)c(C(F)(F)F)c4)cc3)c2cc1OC`
result: 0.097 µM

====

assayed system: Mast/stem cell growth factor receptor Kit (Homo sapiens, UniProt P10721, 560-578DEL/T670I)
Assay type: cell-based
pEC50: −log10 of the molar value.
experimental readout: pEC50

query: Lab request: please report pEC50 under test system Mast/stem cell growth factor receptor Kit (Homo sapiens, UniProt P10721, 560-578DEL/T670I) for `COc1cc2nccc(Oc3ccc(NC(=O)Cc4ccc(Cl)c(C(F)(F)F)c4)cc3)c2cc1OC`
result: > 7.00

====

assayed system: Mast/stem cell growth factor receptor Kit (Homo sapiens, UniProt P10721, 560-578DEL/T670I)
Type: cell-based, GISTT1
experimental readout: EC50

query: Lab request: please report EC50 under test system Mast/stem cell growth factor receptor Kit (Homo sapiens, UniProt P10721, 560-578DEL/T670I) for `COc1cc2nccc(Oc3ccc(NC(=O)Cc4ccc(Cl)c(C(F)(F)F)c4)cc3)c2cc1OC`
result: < 100 nM
